pEC50 overview
# test-system: human CLEC12A expressed on cells (human) (UniProt Q5QGZ9)
# Sequence (Q5QGZ9 whole entry): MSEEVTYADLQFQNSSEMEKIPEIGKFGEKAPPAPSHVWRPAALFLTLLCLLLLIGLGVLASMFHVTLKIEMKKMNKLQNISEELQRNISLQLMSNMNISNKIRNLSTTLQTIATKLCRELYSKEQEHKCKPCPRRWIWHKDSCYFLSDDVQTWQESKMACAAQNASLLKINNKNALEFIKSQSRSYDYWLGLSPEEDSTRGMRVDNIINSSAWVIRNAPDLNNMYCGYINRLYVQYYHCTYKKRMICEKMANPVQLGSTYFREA
# experimental-protocol: flow cytometry, HL60 cells
The quantity pEC50 is defined as the negative base-10 logarithm of the molar concentration.

Consider the worked cases shown below.
Input: Read the entry AB0192 (bispecific antibody, part only; not given: Fc, unrelated binder arm, linkers, not shown: another chain or arm of the molecule; a dimerising Fc or GST; small tags and cut ends) scFv: EVQLVESGGGVVQPGGSLRLSCAASGFTFNAFGMHWVRQAPGKCLEWVAFISSGSTSIYYANTVKGRFTISRDNSKNTLYLQMNSLRAEDTAVYYCARDGYPTGGAMDYWGQGTSVTVSSGGGGSGGGGSGGGGSGGGGSDIQMTQSPSSLSASVGDRVTITCKASQDIYNYLSWFQQKPGKAPKPLIYRANILVSGVPSRFSGSGSGQDYTFTISSLQPEDIATYYCLQFDAFPFTFGCGTKLEIK and write its reported pEC50.
Output: 9.22

Input: Tell us which pEC50 value is on record for AB0185 (bispecific antibody, part only; not given: Fc, unrelated binder arm, linkers, not shown: another chain or arm of the molecule; a dimerising Fc or GST; small tags and cut ends) scFv: DIQMTQSPSSLSASVGDRVTITCKASQDIYNYLSWFQQKPGKAPKPLIYRANILVSGVPSRFSGSGSGQDYTFTISSLQPEDIATYYCLQFDAFPFTFGCGTKLEIKGGGGSGGGGSGGGGSGGGGSEVQLVESGGGVVQPGGSLRLSCAASGFTFNSFGMHWVRQAPGKCLEWVAFISSGSTSIYYANTVKGRFTISRDNSKNTLYLQMNSLRAEDTAVYYCARDGYPTGGAMDYWGQGTSVTVSS
Output: 9.40

Input: State, in one line, measured pEC50 of AB0189 (bispecific antibody, part only; not given: Fc, unrelated binder arm, linkers, not shown: another chain or arm of the molecule; a dimerising Fc or GST; small tags and cut ends) scFv: DIKMTQSPSSLSASVGDRVTITCKASQDIYNYLSWFQQKPGKAPKPLIYRANILVSGVPSRFSGSGSGQDYTLTISSLQPEDIATYYCLQFDAFPFTFGCGTKLEIKGGGGSGGGGSGGGGSGGGGSEVQLVESGGGVVQPGGSLRLSCAASGFTFNAFGMHWVRQAPGKCLEWVAFISSGSTSIYYANTVKGRFTISRDNSKNTLYLQMNSLRAEDTAVYYCARDGYPTGGAMDYWGQGTSVTVSS
Output: 9.15

Input: Could you please provide reported pEC50 for AB0186 (bispecific antibody, part only; not given: Fc, unrelated binder arm, linkers, not shown: another chain or arm of the molecule; a dimerising Fc or GST; small tags and cut ends) scFv: DIQMTQSPSSLSASVGDRVTITCKASQDIYNYLSWFQQKPGKAPKPLIYRANILVSGVPSRFSGSGSGQDYTFTISSLQPEDIATYYCLQFDAFPFTFGCGTKLEIKGGGGSGGGGSGGGGSGGGGSEVQLVESGGGVVQPGGSLRLSCAASGFTFNAFGMHWVRQAPGKCLEWVAFISSGSTSIYYANTVKGRFTISRDNSKNTLYLQMNSLRAEDTAVYYCARDGYPTGGAMDYWGQGTSVTVSS ? Thanks!
Output: 9.30

Input: Supply pEC50 value. Item: AB0195 (bispecific antibody, part only; not given: Fc and unrelated binding arm, not shown: another chain or arm of the molecule; a dimerising Fc or GST) scFv: EVQLVESGGGVVQPGGSLRLSCAASGFTFNAFGMHWVRQAPGKCLEWVAFISSGSTSIYYANTVKGRFTISRDNSKNTLYLQMNSLRAEDTAVYYCARDGYPTGGAMDYWGQGTSVTVSSGGGGSGGGGSGGGGSGGGGSDIKMTQSPSSLSASVGDRVTITCKASQDIYNYLSWFQQKPGKAPKPLIYRANILVSGVPSRFSGSGSGQDYTLTISSLQPEDIATYYCLQFDAFPFTFGCGTKLEIK
Output: 9.15

Here is another binder to look at.
Input: Write down pEC50 measured for item AB0010 (bispecific antibody, part only; not given: constant domains, Fc, unrelated scFv, V domains shown, not shown: another chain or arm of the molecule; a dimerising Fc or GST) VH: QLQLQESGPGLVKPSETLSLTCTVSGFSLTNYGLHWIRQPPGKGLEWIGVIWSGGKTDYNPSLKSRVTISKDTSKNQFSLKLSSVQAADTAVYYCAKYDYDDSLDYWGQGTLVTVSS VL: DIQMTQSPSSLSASVGDRVTITCHASQNINFWLSWYQQKPGKAPKLLIYEASNLHTGVPSRFSGSGSGTRFTLTISSLQPEDIATYYCQQSHSYPLTFGGGTKLEIK
Output: 8.38

Each recorded value in this set is attributed to patent US20230220084A1.
